TEST: Log P by HPLC on reversed phase columns (EEC directive 79/831 Annex V.A8; methods [a], [b], [c])
Format: physicochemical
Assign LogP to each entry below.

// known answers, use as guide
>>> recorded_value("C#Cc1ccc(C(O)(Cn2cncc2C#N)C2(Cl)CC2)c(F)c1 (centres unmarked)")
"2.42^[a]"
>>> recorded_value("OC(Cn1cncc1Cl)c1ccc(Oc2ccc(Br)nc2)cc1Cl (centres unmarked)")
"1.92^[a]"
>>> recorded_value("N#Cc1cncn1CC(O)(c1ccc(Cl)nc1F)C1(F)CC1 (centres unmarked)")
"1.96^[a]"

Quick batch: LogP for everything below.
1. N#Cc1cncn1CC(O)(c1cnc(Cl)cc1Cl)C1(F)CC1 (centres unmarked)
2. CCCCCC(O)(Cn1cncc1C#N)c1ccc(Cl)cc1 (centres unmarked)

*A*
1. 1.90^[a]
2. 3.10^[a]

Origin of the recorded values: patent US20200031778A1
